target: T1, GST-TIAM1 PDZ domain fusion protein (Homo sapiens (Human), UniProt Q13009 845-931); test: A/G assays
T1 construct: also called TLAM1; T-lymphoma invasion and metastasis inducing protein 1; not shown: glutathione S-transferase encoded by vector pGEX-3X (Pharmacia)
T1 sequence (Q13009 other isoform, or with tags, fused parts or gaps): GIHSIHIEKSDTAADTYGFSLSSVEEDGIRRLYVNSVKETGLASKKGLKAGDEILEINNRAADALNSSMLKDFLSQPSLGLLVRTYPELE
Ends that are not written are not given here. * marks the point of attachment. Biotin = O=C1N[C@H]2[C@H](CS[C@H]2CCCCC(=O)*)N1
readout.label: binding result

binder | result
Biotin-KENDYESISDLQQGRDITRL (also called Phosphoprotein Associated with GEMs) [PAG C-terminal peptide AA58L, biotinylated] | no binding
Biotin-GTSDMKDLVGNIEQNEHSVI (Only the last four residues are seen in the excerpts) [Mannose receptor C-terminal peptide AA31L] | no binding
Biotin-QEEDGCSCRFPEEEEGGCEL (cysteine pairing not given here, Marked (S), sticky peptide with high background; also called CDw137 (4-1BB ILA) (S)) [CDw137 (4-1BB ILA) C-terminal peptide AA21L] | no binding
Biotin-SSKSKSSEESQTFFGLYKL (not fully specified, also called FasLigand; Fas ligand) [FasL C-terminal peptide AA23L-M, biotinylated] | no binding
Biotin-LERTSSVSPSTAEPELSIVF (Only the last four residues are seen in the excerpts) [CC CKR-3 C-terminal peptide AA43L] | no binding
Biotin-SFPPCGHRENVPGQSLVSFV (Marked (S), sticky; also called Spectrin beta (S); Spectrin β) [Spectrin (beta) C-terminal peptide AA32L, biotinylated] | no binding
